These data points were gathered from patent US20220096653A1.

Some binders, each annotated with its measured pEC50.
- MEASURED TARGET: T1, CEACAM5 (R&D Systems, 4128-CM-050) (human, UniProt P06731 35-685)
- T1 construct: Immobilised on the ELISA plate; also called human CEACAM5
- T1 sequence (looked up): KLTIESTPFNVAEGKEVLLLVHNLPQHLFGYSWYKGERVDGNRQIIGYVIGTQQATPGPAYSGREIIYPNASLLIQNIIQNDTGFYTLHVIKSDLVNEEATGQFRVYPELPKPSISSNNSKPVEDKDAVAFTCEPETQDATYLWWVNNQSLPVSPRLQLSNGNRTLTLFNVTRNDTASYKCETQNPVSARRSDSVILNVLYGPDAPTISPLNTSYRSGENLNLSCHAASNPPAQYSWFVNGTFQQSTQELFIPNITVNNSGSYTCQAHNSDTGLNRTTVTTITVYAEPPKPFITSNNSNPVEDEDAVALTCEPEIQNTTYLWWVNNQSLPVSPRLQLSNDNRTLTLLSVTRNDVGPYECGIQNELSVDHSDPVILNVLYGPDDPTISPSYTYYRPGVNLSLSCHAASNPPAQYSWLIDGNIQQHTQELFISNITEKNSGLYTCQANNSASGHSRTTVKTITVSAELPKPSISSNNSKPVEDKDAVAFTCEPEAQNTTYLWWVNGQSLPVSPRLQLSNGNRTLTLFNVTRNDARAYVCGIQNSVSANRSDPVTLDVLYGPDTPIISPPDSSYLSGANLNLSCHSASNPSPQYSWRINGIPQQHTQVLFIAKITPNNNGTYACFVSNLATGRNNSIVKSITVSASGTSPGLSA
- ASSAY: ELISA on immobilised CEACAM5, 4-parameter fit, duplicate
- Description: Each anti-human CEACAM5 antibody Fab fragment conjugate prepared in Example 2 was subjected to ELISA to evaluate the binding activity thereof to CEACAM5. […] The substrate was incubated at room temperature for 15 minutes, and then a signal value thereof was measured using an Envision counter (PerkinElmer, Inc.). The test for each antibody was carried out in duplicate, and an EC₅₀ value was calculated using a 4-parameter logistic curve model.
Notebook: values listed as pEC50 are -log10 of the concentration (mol/L).

Before answering, review these 4 worked examples.
BINDER: (Y-S1-X)p-Fab^2 with Y Gd/DOTA, S1 -NH-(CH2CH2O)3-CH2-C(═O)-NH-CH2-(1,3-Ph)-C(═O)-, X -Gly-Lys*-Z2(#S)- (Fab, V domains shown, labeling may sit on this chain; sites not stated; labeling portion (MW 1248) on amino groups of the Fab, sites and chain not stated; 1-2 per Fab by MS, also called Ex-No 25; conjugate 25) VH: EVQLVESGGGLVQPGGSLRLSCAASGFNIRDTYMHWVRQAPGKGLEWVARIDPANGNSRYVPKFQGRFTISADTSRNTAYLQMNSLRAEDTAVYYCAPFGYYVSDYAMAYWGQGTLVTVSS VL: DIQLTQSPSSLSASVGDRVTITCRAGESVDIFGVGFLHWYQQKPGKAPKLLIYRASNLESGIPSRFSGSGSRTDFTLTISSLQPEDFATYYCQQTNEDPYTFGQGTKVEIKR
pEC50: 9.49

BINDER: (Y-S1-X)p-Fab^2 with Y Gd/DOTA, S1 - (bond), X -Gly-Tyr*-CH2-C-(═O)-Lys*-Z2(#N)- (Fab, V domains shown, labeling may sit on this chain; sites not stated; labeling portion (MW 1046) on amino groups of the Fab, sites and chain not stated; 1-3 per Fab by MS, also called Ex-No 4; conjugate 4) VH: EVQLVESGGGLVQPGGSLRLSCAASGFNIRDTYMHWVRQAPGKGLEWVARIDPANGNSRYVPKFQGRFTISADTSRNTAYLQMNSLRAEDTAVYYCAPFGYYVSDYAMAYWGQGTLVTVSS VL: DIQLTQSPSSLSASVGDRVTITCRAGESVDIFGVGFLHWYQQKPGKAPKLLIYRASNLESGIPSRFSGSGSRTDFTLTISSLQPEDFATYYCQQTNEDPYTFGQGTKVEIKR
pEC50: 9.82

BINDER: [Gd/DOTA-NH-(CH2CH2O)3-CH2-C(═O)-NH-CH2-(1,3-Ph)-C(═O)-Met-Gly-Lys*-Z2(#S)]p-Fab^2 (Fab, V domains shown, labeling may sit on this chain; sites not stated; labeling portion (MW 1380) bound via 2-iminothiolane-treated amino groups of the Fab, sites and chain not stated; 1 per Fab by MS, also called Ex-No 35; Conjugate No. 35) VH: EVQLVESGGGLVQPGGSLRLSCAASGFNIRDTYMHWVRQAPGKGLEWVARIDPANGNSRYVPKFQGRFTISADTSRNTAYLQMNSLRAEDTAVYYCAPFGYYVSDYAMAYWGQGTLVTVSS VL: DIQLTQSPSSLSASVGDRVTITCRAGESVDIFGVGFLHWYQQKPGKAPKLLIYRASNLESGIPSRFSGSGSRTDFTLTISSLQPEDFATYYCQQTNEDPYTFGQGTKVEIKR
pEC50: 9.37

BINDER: (Y-S1-X)p-Fab^2 with Y Gd/DOTA, S1 - (bond), X -Gly-Tyr*-CH2-C(═O)-NH-(CH2O)3-CH2-C(═O)-NH-(CH2)2-Z1(#N)- (Fab, V domains shown, labeling may sit on this chain; sites not stated; labeling portion (MW 1149) on amino groups of the Fab, sites and chain not stated; 1-2 per Fab by MS, also called Ex-No 17; conjugate 17) VH: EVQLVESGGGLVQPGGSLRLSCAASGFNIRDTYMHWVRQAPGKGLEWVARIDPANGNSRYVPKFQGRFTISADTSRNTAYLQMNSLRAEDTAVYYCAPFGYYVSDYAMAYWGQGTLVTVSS VL: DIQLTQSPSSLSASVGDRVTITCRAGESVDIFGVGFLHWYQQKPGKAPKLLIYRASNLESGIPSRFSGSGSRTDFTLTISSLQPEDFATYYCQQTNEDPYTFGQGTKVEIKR
pEC50: 9.64

Let's switch to this binder now.
Return reported pEC50; argument: (Y-S1-X)p-Fab^2 with Y Gd/DOTA, S1 spacer (p), X -Met-Gly-Lys*-Z2(#N)- (Fab, V domains shown, labeling may sit on this chain; sites not stated; labeling portion (MW 1079) on amino groups of the Fab, sites and chain not stated; 1-3 per Fab by MS, also called Ex-No 57; conjugate 57) VH: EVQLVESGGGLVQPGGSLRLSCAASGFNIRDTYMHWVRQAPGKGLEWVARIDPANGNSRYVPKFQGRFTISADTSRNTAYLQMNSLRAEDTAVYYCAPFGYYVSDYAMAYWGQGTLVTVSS VL: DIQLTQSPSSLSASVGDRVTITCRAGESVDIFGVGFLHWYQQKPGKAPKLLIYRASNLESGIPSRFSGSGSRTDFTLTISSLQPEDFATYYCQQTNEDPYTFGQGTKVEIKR
9.54
